# Tested on: SARS-CoV-2
# EXPERIMENT: microbe, parasite or virus in culture
# Format: cell-based
# CONDITION: Severe acute respiratory syndrome coronavirus 2; HeLa-ACE2 cells infected with SARS-CoV-2, 24 h, immunofluorescence of infected cells; read-out: EC50, μM (Hela)
ASSAY ENDPOINT: EC50

COMPOUND	ASSAY ENDPOINT	ASSAY VALUE
CCCCCCC(=O)OCC(=O)[C@H](C[C@@H]1CCNC1=O)NC(=O)[C@H](CC(C)C)NC(=O)c1cc2ccccc2[nH]1	EC50	0.05 to 0.2 µM
CCc1cccc(CC)c1NC(=O)C(=O)N[C@@H](CC(C)C)C(=O)N[C@@H](C[C@@H]1CCCNC1=O)C(=O)CO	EC50	< 0.05 µM
O=C(Nc1ccccc1F)C(=O)N[C@@H](CC1CCCCC1)C(=O)N[C@@H](C[C@@H]1CCCNC1=O)C(=O)CO	EC50	0.05 to 0.2 µM
CCCCCCCCCCCCCCC(=O)OCC(=O)[C@H](C[C@@H]1CCNC1=O)NC(=O)[C@H](CC(C)C)NC(=O)C(=O)Nc1ccccc1F	EC50	0.2 to 0.5 µM
CC(C)C[C@H](NC(=O)C(=O)Nc1ccccc1F)C(=O)N[C@@H](C[C@@H]1CCNC1=O)C(=O)COC(=O)OC(C)C	EC50	0.05 to 0.2 µM
CC(=O)NC(CC(C)C(F)(F)F)C(=O)N1C[C@H]2[C@@H]([C@H]1C(=O)N[C@H](C#N)C[C@@H]1CCCNC1=O)C2(C)C (stereo partly drawn)	EC50	0.5 to 1 µM

* * *

# Tested on: SARS-CoV-2
# EXPERIMENT: microbe, parasite or virus in culture
# Type: cell-based
# CONDITION: Severe acute respiratory syndrome coronavirus 2, HeLa-ACE2, 24 h, read-out: EC50, μM (Hela)

SMILES REPR	EC50
CC(C)(C)[C@H](NC(=O)C(F)(F)F)C(=O)N1C[C@H]2[C@@H]([C@H]1C(=O)N[C@H](C#N)C[C@@H]1CCCNC1=O)C2(C)C	< 0.05 µM
CC1(C)[C@@H]2[C@@H](C(=O)N[C@H](C#N)C[C@@H]3CCCNC3=O)N(C(=O)[C@@H](NC(=O)C(F)(F)F)C3CCOCC3)C[C@@H]21	> 1 µM
CC(C)C[C@H](NC(=O)OCc1cccc(Cl)c1)C(=O)N[C@@H](C[C@@H]1CCNC1=O)C(=O)COC(=O)Cc1ccccc1	> 1 µM

* * *

# Tested on: SARS-CoV-2
# EXPERIMENT: microbe, parasite or virus in culture
# Format: cell-based
# CONDITION: Severe acute respiratory syndrome coronavirus 2; HeLa-ACE2 cells infected with SARS-CoV-2, 24 h, immunofluorescence of infected cells; read-out: EC50, μM (Hela)
ASSAY ENDPOINT: EC50

COMPOUND	ASSAY VALUE
CC(C)(NC(=O)C(=O)N1C[C@@H]2CCC[C@@H]2[C@H]1C(=O)N[C@H](C=O)C[C@@H]1CCCNC1=O)C(F)(F)F [Compound 47]	0.5 to 1 µM
CC(C)C[C@H](NC(=O)C(=O)NC1CCCCC1)C(=O)N[C@H](C=O)C[C@@H]1CCNC1=O [Compound 42]	0.5 to 1 µM
CC(C)(C)C[C@H](NC(=O)C(=O)NC12CC(F)(C1)C2)C(=O)N[C@@H](C[C@@H]1CCNC1=O)C(=O)CO [Compound 22]	0.2 to 0.5 µM
N#C[C@H](C[C@@H]1CCNC1=O)NC(=O)[C@@H]1CC2(CC2)CN1C(=O)C(=O)Nc1ccccc1F [Compound 64]	> 1 µM
CC1(C)[C@@H]2[C@@H](C(=O)N[C@H](C=O)C[C@@H]3CCCNC3=O)N(C(=O)C(=O)NC3CCCCC3)C[C@@H]21 [Compound 48]	0.5 to 1 µM
CC(C)C[C@H](NC(=O)C(=O)Nc1ccccc1F)C(=O)N[C@H](C=O)C[C@@H]1CCNC1=O [Compound 39]	0.05 to 0.2 µM
CC(C)C[C@H](NC(=O)c1cc(-c2ccccn2)on1)C(=O)N[C@H](C=O)C[C@@H]1CCCNC1=O [Compound 127]	0.5 to 1 µM

Values from patent US20230033285A1
